# Tested on: lung cancer A-549 cell line
# ASSAY OVERVIEW: CellTiter-Glo Luminescent cell viability assay, anti-proliferative activity, A-549
# Type: cell-based, human
# STUDY CONDITIONS: Homo sapiens, A549; 30 µM single concentration, quadruplicate; read-out: Growth inhibition % A-549
Output MET for inhibition at 30 µM not less than 20%; output NOT MET otherwise.

molecule=COC(=O)c1ccc(C=NN=C2C(=O)Nc3ccccc32)cc1 category=MET
molecule="O=C1Nc2ccc(Cl)cc2C1=NNc1nc(-c2ccccc2)cs1 [Compound 10e]" category=MET
molecule="O=C1Nc2ccccc2C1=NNc1nc(-c2ccc(Cl)cc2)cs1 [Compound 10c]" category=MET
molecule=COC(=O)c1ccc(C=NN=C2C(=O)Nc3ccc(Br)cc32)cc1 category="NOT MET"
molecule=COC(=O)c1ccc(C=NN=C2C(=O)Nc3ccc(Cl)cc32)cc1 category=MET
molecule="Cc1ccc(-c2csc(NN=C3C(=O)Nc4ccc(Br)cc43)n2)cc1 [Compound 10j]" category=MET
molecule="Cc1ccc(-c2csc(NN=C3C(=O)Nc4ccc(Cl)cc43)n2)cc1 [Compound 10f]" category=MET
molecule=CC(=O)c1ccc(C=NN=C2C(=O)Nc3ccccc32)cc1 category="NOT MET"
molecule=Cc1csc(C=NN=C2C(=O)Nc3ccc(Cl)cc32)n1 category=MET
molecule="O=C1Nc2ccccc2C1=NNc1nc(-c2ccccc2)cs1 [Compound 10a]" category=MET
molecule="O=C1Nc2ccccc2C1=NNc1nc(-c2ccc(Br)cc2)cs1 [Compound 10d]" category="NOT MET"
molecule="O=C1Nc2ccc(Cl)cc2C1=NNc1nc(-c2ccc(Cl)cc2)cs1 [Compound 10g]" category="NOT MET"
